// provenance: patent US7781591B2

- Target Under Test: human PKCθ full length enzyme (Homo sapiens, UniProt Q04759)
- Construct: human PKCθ full length enzyme (Panvera Cat# P2996); purchased Panvera P2996
- Sequence (Q04759 whole entry): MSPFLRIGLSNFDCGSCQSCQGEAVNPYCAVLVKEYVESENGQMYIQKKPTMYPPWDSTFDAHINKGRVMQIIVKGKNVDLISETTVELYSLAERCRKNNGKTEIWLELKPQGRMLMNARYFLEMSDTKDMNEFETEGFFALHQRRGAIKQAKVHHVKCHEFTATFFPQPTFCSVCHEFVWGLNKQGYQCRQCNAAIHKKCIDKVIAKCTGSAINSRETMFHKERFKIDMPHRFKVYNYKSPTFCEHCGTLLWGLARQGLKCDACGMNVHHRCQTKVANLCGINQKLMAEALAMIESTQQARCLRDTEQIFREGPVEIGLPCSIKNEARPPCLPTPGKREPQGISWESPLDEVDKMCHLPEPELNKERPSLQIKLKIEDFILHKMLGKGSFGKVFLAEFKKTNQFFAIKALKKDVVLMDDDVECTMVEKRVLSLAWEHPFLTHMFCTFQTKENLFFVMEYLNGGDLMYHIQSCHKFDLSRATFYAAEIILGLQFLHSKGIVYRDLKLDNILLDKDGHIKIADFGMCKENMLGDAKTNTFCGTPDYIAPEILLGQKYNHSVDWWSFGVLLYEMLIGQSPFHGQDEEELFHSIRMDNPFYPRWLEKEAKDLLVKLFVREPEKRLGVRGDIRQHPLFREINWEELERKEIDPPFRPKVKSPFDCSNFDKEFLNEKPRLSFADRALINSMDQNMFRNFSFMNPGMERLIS
- Assay Text: PKCθ IMAP assay (fluorescence polarization)
- Format: biochemical
- Condition Parameters: human PKCθ full length enzyme, IMAP; average value; read-out: IC50 PKCθ IMAP
Endpoint: IC50 (nM)

Check out these entries, answers already filled in.
N#Cc1cncc(-c2cccc3c2oc2ccccc23)c1Nc1cccc2[nH]ccc12: 60
Cc1c(Nc2c(C#N)cncc2-c2cc3cc(CN4CCNCC4)ccc3o2)cc(Cl)c2[nH]ccc12: 4
CN(C)Cc1ccc(-c2cccc(-c3cncc(C#N)c3Nc3cccc4[nH]ccc34)c2)s1: 10
COc1ccc(-c2cncc(C#N)c2Nc2ccc3[nH]ccc3c2)cc1OCCN(CCO)CCO: 4320

I = N#Cc1cncc(-c2cccc(-c3ccc(N)cc3)c2)c1Nc1ccc2[nH]ccc2c1
II = COc1ccc(-c2cncc(C#N)c2NCC2CCN(C)CC2)cc1OC
III = Cc1c(Nc2c(C#N)cncc2-c2ccc(N)cc2)ccc2[nH]ccc12
IV = COc1ccc(-c2cncc(C#N)c2Nc2cccc3[nH]ccc23)cc1OCCNCCO
V = COc1ccc(-c2cncc(C#N)c2Nc2c(C)ccc3[nH]ccc23)cc1OC
Order the records so the highest IC50 appears first and the lowest last. Please list each label once, in the requested order. II, I, V, IV, III

1 = Cc1c(Nc2c(C#N)cncc2-c2ccoc2)ccc2[nH]ccc12
2 = N#Cc1cncc(-c2cccc(-c3ccc(C(=O)NCCCCO)cc3)c2)c1Nc1ccc2[nH]ccc2c1
When 1 and 2 are compared, which has the higher number for IC50? Refer to your chosen entry by its label in the reply. 2
(2: 280 nM, 1: 22 nM)

* * *

- Target Under Test: human PKCθ full length enzyme (Homo sapiens)
- Construct: human PKCθ full length enzyme (Panvera Cat# P2996); purchased Panvera P2996
- Assay Text: PKCθ IMAP assay (fluorescence polarization)
- Assay type: biochemical
- Condition Parameters: human PKCθ full length enzyme, IMAP; average value; read-out: IC50 PKCθ IMAP
Endpoint: IC50 (nM)

Check out these entries, answers already filled in.
Cc1c(Nc2c(C#N)cncc2-c2cc3ccccc3o2)ccc2[nH]ccc12: 1
Cc1cc2[nH]ccc2cc1Nc1c(C#N)cncc1-c1cc2cc(CO)ccc2o1: 3
N#Cc1cncc(-c2cc3cc(CNCCCO)ccc3s2)c1Nc1cccc2[nH]ccc12: 2
N#Cc1cncc(-c2cncnc2)c1Nc1ccc2[nH]ccc2c1: 3860
Cc1c(Nc2c(C#N)cncc2-c2ccc(OCCNCCCc3ccccc3)cc2)ccc2[nH]ccc12: 3

1 = N#Cc1cncc(-c2cccc(OCCN3CCCCC3)c2)c1Nc1cccc2[nH]ccc12
2 = N#Cc1cncc(-c2cccc(-c3ccoc3)c2)c1Nc1ccc2[nH]ccc2c1
3 = Cc1c(Nc2c(C#N)cncc2-c2ccc(OCCNCc3ccncc3)cc2)ccc2[nH]ccc12
4 = N#Cc1cncc(-c2cccc(OCCNCCO)c2)c1Nc1ccc2[nH]ccc2c1
Order the records so the highest IC50 appears first and the lowest last. Please list each label once, in the requested order. 2, 1, 4, 3
(2: 120 nM, 1: 50 nM, 4: 30 nM, 3: 14 nM)

* * *

- Target Under Test: human PKCθ full length enzyme (Homo sapiens)
- Construct: human PKCθ full length enzyme (Panvera Cat# P2996); purchased Panvera P2996
- Assay Text: PKCθ IMAP assay (fluorescence polarization)
- Format: biochemical
- Condition Parameters: human PKCθ full length enzyme, IMAP; average value; read-out: IC50 PKCθ IMAP
Endpoint: IC50 (nM)

COc1ccc(-c2cncc(C#N)c2Nc2ccc3[nH]ccc3c2)cc1OCCNC1CCCCC1: 170
COc1ccc(CN2CCN(C)CC2)cc1-c1cncc(C#N)c1Nc1ccc2[nH]ccc2c1C: 84
Cc1c(Nc2c(C#N)cncc2-c2ccccc2N)ccc2[nH]ccc12: 57

I = COc1ccc(-c2cncc(C#N)c2Nc2ccc3[nH]ccc3c2)cc1OCCNCc1ccccn1
II = COc1ccc(-c2cncc(C#N)c2Nc2ccc3[nH]ccc3c2)cc1OCCN(C)C
Lab note: check whether I or II has the lower measured IC50. Refer to your chosen entry by its label in the reply. I
(I: 80 nM, II: 200 nM)

P = Cc1c(Nc2c(C#N)cncc2-c2cccs2)ccc2[nH]ccc12
Q = Cc1c(Nc2c(C#N)cncc2-c2cnc(N3CCCCC3)nc2)ccc2[nH]ccc12
Lab note: check whether P or Q has the lower measured IC50. Refer to your chosen entry by its label in the reply. P
(P: 21 nM, Q: 300 nM)

a = Cc1c(Nc2c(C#N)cncc2-c2ccccc2)ccc2[nH]ccc12
b = COc1ccc(-c2cncc(C#N)c2NC[C@H]2CC[C@H](N)CC2)cc1OC
Lab note: check whether a or b has the lower measured IC50. Refer to your chosen entry by its label in the reply. a
(a: 27 nM, b: 1770 nM)

P = Cc1c(Nc2c(C#N)cncc2-c2cccc(OCCCCN3CCN(C)CC3)c2)ccc2[nH]ccc12
Q = Cc1c(Nc2c(C#N)cncc2-c2ccc(OCCN3CCCN(C)CC3)cc2)ccc2[nH]ccc12
R = N#Cc1cncc(-c2cc3cc(CNCc4cccnc4)ccc3s2)c1Nc1cccc2[nH]ccc12
Order the records so the highest IC50 appears first and the lowest last. Please list each label once, in the requested order. P, Q, R

* * *

- Target Under Test: human PKCθ full length enzyme (Homo sapiens)
- Construct: human PKCθ full length enzyme (Panvera Cat# P2996); purchased Panvera P2996
- Assay Text: PKCθ IMAP assay (fluorescence polarization)
- Format: biochemical
- Condition Parameters: human PKCθ full length enzyme, IMAP; average value; read-out: IC50 PKCθ IMAP
Endpoint: IC50 (nM)

Cc1c(Nc2c(C#N)cncc2-c2ccc(OCCN3CCC(N4CCOCC4)CC3)cc2)ccc2[nH]ccc12: 4
Cc1c(Nc2c(C#N)cncc2-c2ccc(CN3CCC(N(C)C)CC3)o2)ccc2[nH]ccc12: 1
COc1ccc(-c2cncc(C#N)c2Nc2cccc3[nH]ccc23)cc1OCCN1CCN(C)CC1: 20

a = N#Cc1cncc(-c2cccc(-c3ccc(C(=O)NC4CCCCC4)cc3)c2)c1Nc1ccc2[nH]ccc2c1
b = N#Cc1cncc(-c2cccc(-c3cccc(Cl)c3)c2)c1Nc1ccc2[nH]ccc2c1
c = CS(=O)(=O)Nc1ccc(-c2cncc(C#N)c2Nc2cccc3[nH]ccc23)cc1
Order the records so the highest IC50 appears first and the lowest last. Please list each label once, in the requested order. a, b, c
(a: 340 nM, b: 160 nM, c: 20 nM)

A = Cc1c(Nc2c(C#N)cncc2-c2ccc3cc[nH]c3c2)ccc2[nH]ccc12
B = Cc1c(Nc2c(C#N)cncc2-c2cccc(C(=O)O)c2)ccc2[nH]ccc12
When A and B are compared, which has the higher number for IC50? Refer to your chosen entry by its label in the reply. B
(B: 110 nM, A: 57 nM)

* * *

- Target Under Test: human PKCθ full length enzyme (Homo sapiens)
- Construct: human PKCθ full length enzyme (Panvera Cat# P2996); purchased Panvera P2996
- Assay Text: PKCθ IMAP assay (fluorescence polarization)
- Assay type: biochemical
- Condition Parameters: human PKCθ full length enzyme, IMAP; average value; read-out: IC50 PKCθ IMAP
Endpoint: IC50 (nM)

a = COc1ccc(-c2cncc(C#N)c2N[C@H]2CC[C@H](N)CC2)cc1OC [Compound 524]
b = Cc1c(Nc2c(C#N)cncc2-c2cc3cc(CO)ccc3o2)ccc2[nH]ccc12 [Compound 481]
c = COc1ccc(-c2cncc(C#N)c2Nc2ccc3[nH]ccc3c2)cc1-c1cccc(Cl)c1 [Compound 191]
d = Cc1c(Nc2c(C#N)cncc2-c2cccc(N)c2)ccc2[nH]ccc12 [Compound 572]
Ranking field: IC50; order: falling. Please list each label once, in the requested order. a, c, d, b
(a: 4100 nM, c: 320 nM, d: 50 nM, b: 0.21 nM)

* * *

- Target Under Test: human PKCθ full length enzyme (Homo sapiens, UniProt Q04759)
- Construct: human PKCθ full length enzyme (Panvera Cat# P2996); purchased Panvera P2996
- Assay Text: PKCθ IMAP assay (fluorescence polarization)
- Assay type: biochemical
- Condition Parameters: human PKCθ full length enzyme, IMAP; average value; read-out: IC50 PKCθ IMAP
Endpoint: IC50 (nM)

Check out these entries, answers already filled in.
CN(C)Cc1cccc(-c2cncc(C#N)c2Nc2cccc3[nH]ccc23)c1: 100
COc1cccc(-c2cncc(C#N)c2Nc2ccc3cn[nH]c3c2)c1: 16200
Cc1c(Nc2c(C#N)cncc2-c2ccc(NC(=O)N3CCOCC3)cc2)ccc2[nH]ccc12: 59
COc1cc(-c2cncc(C#N)c2Nc2ccc3[nH]ccc3c2C)ccc1OCCN1CCOCC1: 30
N#Cc1cncc(-c2cccc(-c3ccc(CN4CCCCC4)s3)c2)c1Nc1ccc2[nH]ccc2c1: 140
COc1cc(Br)c(-c2cncc(C#N)c2Nc2ccc3[nH]ccc3c2C)cc1OC: 100
Cc1c(Nc2c(C#N)cncc2-c2cccc(Br)c2)ccc2[nH]ccc12: 4
Cc1c(Nc2c(C#N)cncc2-c2cc3cc(CN4CCN(C(=O)OC(C)(C)C)CC4)ccc3o2)cc(Cl)c2[nH]ccc12: 406
CC(=O)Nc1ccc(-c2cccc(-c3cncc(C#N)c3Nc3ccc4[nH]ccc4c3)c2)cc1: 230
Cc1c(Nc2c(C#N)cncc2-c2ccc(OCCCCN3CCN(C)CC3)cc2)ccc2[nH]ccc12: 15

P = Cc1c(Nc2c(C#N)cncc2-c2ccc(OCCCN(C)C)nc2)ccc2[nH]ccc12
Q = N#Cc1cncc(-c2cccc(C(N)=O)c2)c1Nc1cccc2[nH]ccc12
R = COc1ccc(-c2cncc(C#N)c2Nc2ccc(C)c3cc[nH]c23)cc1OC
S = Cc1c(Nc2c(C#N)cncc2-c2ccc(CN3CCN(C)CC3)cc2F)ccc2[nH]ccc12
Please list these in order of increasing IC50. Thank you! Please list each label once, in the requested order. S, P, Q, R

P = COc1ccc(C=O)cc1-c1cncc(C#N)c1Nc1ccc2[nH]ccc2c1C
Q = Cc1c(Nc2c(C#N)cncc2-c2ccc(OCCNCc3ccccn3)cc2)ccc2[nH]ccc12
When P and Q are compared, which has the higher number for IC50? Refer to your chosen entry by its label in the reply. P
